Test system: OVCAR-8 ovarian
protocol_description: NCI-60 one-dose screen, 48 h
reported_conditions: 10 µM unless noted
This is part of a sample that, as a whole, favours compounds with a hit. Of some 83,000 tested, about 20% had one in any assay. Activity calls are given as the source filed them. How the source made its calls: active means growth percent below 10; inactive means the rest.
Labels: label 1 (active), label 0 (inactive)

• O=c1c2sc3ccccc3c2nnn1-c1ccc(F)c(Cl)c1 = label 0
• CSCCC1NC(=O)C(C(C)=Nc2ccccc2)=C1O (configuration not stated) = label 0
• O=C(Nc1ccc(Cl)c(C(F)(F)F)c1)c1ccc(Nc2ccc(Cl)nn2)cc1 = label 0
• C/C(=C\C(=N\N=C(N)N)c1ccc(Cl)cc1)c1ccc(Cl)cc1 = label 1
• CCN(CC)c1ccc2nc3c4ccccc4c(=O)cc-3n(-c3ccccc3)c2c1 = label 1
• Cn1c(=O)c2[nH]c(Cc3ccc4c(c3)OCO4)nc2n(C)c1=O = label 0
• O=C(Cn1nncc1CN1C(=O)CSC1=O)Nc1ccc(F)cc1 = label 0
• CNCCCNc1ccnc2cc(Cl)ccc12 = label 1
• O=C(O)C1[S][Sb]([CH](C(=O)O)[CH](C(=O)O)[Sb]2[S]C(C(=O)O)C(C(=O)O)[S]2)[S]C1C(=O)O (configuration not stated) = label 0
• CCNC(=S)N(Cc1ccccc1)Cc1ccccc1 = label 0
• CC(C)OC(=O)c1ccc([N+](=O)[O-])cc1 = label 0
• O=C(Cc1ccc(Nc2ccnc(C(F)(F)F)c2)cc1)N/N=C/c1ccccc1O = label 0
• CCCCCCCCCCCC1=NC(C)(C)CN1C(C)(C)CO = label 0
• Cc1cc(-c2nnc(/C=C/c3ccc4c(c3)OCO4)o2)n[nH]1 = label 0
• Fc1ccc2nc(-c3ccc(-c4noc(-c5ccc(Cl)cc5)n4)cc3)[nH]c2c1 = label 0
• CCc1ccc(Nc2cc(C)c3ccc(O)cc3n2)cc1 = label 0
• COS(=O)(=O)CCN(CCOS(C)(=O)=O)S(C)(=O)=O = label 0
• O=C(C(Br)C(Br)c1ccccc1)C(Br)C(Br)c1ccccc1 (configuration not stated) = label 1
• COc1cc(-c2nc(-c3nc4cc(C(=O)c5ccccc5)ccc4[nH]3)cc3c2[nH]c2ccccc23)cc(OC)c1OC = label 0
• Clc1cc(Br)ccc1-c1ccc(CNCC2CCNCC2)o1 = label 0
• O=C(/C=C/c1ccccc1)C(Br)C(Br)c1ccccc1 (configuration not stated) = label 1
• Fc1ccc2c(CN3CCO[C@H](COc4cccc(Cl)c4)C3)c[nH]c2c1 = label 0
• C=CCn1c(C)nc2cc(Nc3nc(N4CCCC4)nc4nc[nH]c34)ccc21 = label 0
• C=CC[C@]1(O)CC[C@H]2[C@@H]3CCc4cc(O)ccc4[C@H]3CC[C@@]21C = label 0
• NC(N)=N/N=C/c1ccccc1 = label 0
• COc1ccc(-n2nc(C(=O)NCC(=O)Nc3nc4cc(OC)ccc4s3)c3ccccc3c2=O)cc1 = label 1
• COc1cc(CN2CCO[C@H](COc3cccc(F)c3)C2)ccc1Cl = label 0
• COc1ccc(NC(=O)c2ccc(C(F)(F)F)nc2Nc2ccc(Cl)cc2C)cc1Cl = label 0
• Cc1ccccc1N1C(c2ccccc2)=NNC12C=CC(=O)c1c(O)cccc12 (configuration not stated) = label 0
• O=c1cc(-c2ccc3c(c2)OCCO3)oc2cc(Cl)ccc12 = label 0
• CCOC(=O)c1c(NC(=O)c2ccccc2)sc2c(O)c(CN(CC)CC)ccc12 = label 1
• Oc1c(C(c2ccc(F)cc2)N2CCCCC2)ccc2cncnc12 (configuration not stated) = label 1
• Cc1ccc(-c2nc3ccccc3c(=O)n2/N=C/c2cccc3ccccc23)cc1 = label 0
• CN(CCO)c1ccc(N2Cc3ccccc3OC3=C2C(=O)c2c(O)ccc(O)c2C3=O)cn1 = label 1
• Nc1nc(N)c2c(n1)NC(c1sc(Cl)nc1Cl)CC(c1ccc3c(c1)OCO3)=N2 (configuration not stated) = label 0
• O=C1OCC2=C1C(c1ccc(Cl)c(Cl)c1)c1cc3c(cc1N2CCO)CCC3 (configuration not stated) = label 0
• O=C(Nc1ccccc1)C(CCCCN1C(=O)c2ccccc2C1=O)N1C(=O)c2ccccc2C1=O (configuration not stated) = label 0

All figures here come from PubChem BioAssay (NCI).
